Just for reference, patent US20130230533A1 is where these values come from.

Molecular target: T1, monomeric monkey CD48 expressed with a tag consisting of 2 myc and one 6-His epitopes (monkey)
T1 construct: also called mfCD48-mmH; Monomeric monkey CD48-mmH
T1 chain: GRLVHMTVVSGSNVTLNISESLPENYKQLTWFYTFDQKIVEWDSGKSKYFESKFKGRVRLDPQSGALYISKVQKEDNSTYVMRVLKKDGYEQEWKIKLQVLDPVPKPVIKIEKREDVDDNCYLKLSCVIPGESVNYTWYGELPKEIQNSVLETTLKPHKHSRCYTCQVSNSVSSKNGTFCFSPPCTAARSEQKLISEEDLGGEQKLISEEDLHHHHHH
Assay: competition ELISA; blocks mfCD48-mmH binding to coated h2B4-hFc
ASSAY_READOUT: IC50 (nM)

BINDER	ASSAY_READOUT	READOUT_NUMBER
H2M1713N (antibody, mouse IgG2, V domains shown, Human variable domains, mouse IgG2 Fc (H2M)) VH: QVQLVQSGAEVKKPGASVKVSCKASGHTFTNYYIHWVRQAPGQGLEWMGITNPNDGNTRYAQKFQGRISMTWDTSTSTVFMELSSLKSEDTAVYYCAGLRYWFFDLWGRGTPVTVSS VL: DIQMTQSPSSVSASVGDRVTITCRASQDISSWLAWYQQKPGKAPNLLIFAASSLQSGVPSRFSGSGSGTDFTLTISSLQPEDFGTYYCQQTDNFPRTFGQGTKVEIN	IC50	0.024
H2M1709N (antibody, mouse IgG2, V domains shown, Human variable domains, mouse IgG2 Fc (H2M)) VH: QVQLVQSGAEVKKPGASVKVSCKVSGYTLTELSIHWVRQAPGKGLEWMGGFDPEDGETIYAQKFQGRVNMTEDTSTDTAYMELSSLRSDDTTVYFCASLLPYFDYWGQGTLVTVSS VL: EIVLTQSPGTLSLSPGERATLSCRASQSVSSSYLAWYQQKPGQAPRLLIYGASSRATGIPDRFSGSGSGTDFTLSISRLEPEDFAVYFCQQYGSSMYTFGQGTKLEIK	IC50	0.12
H2M1712N (antibody, mouse IgG2, V domains shown, Human variable domains, mouse IgG2 Fc (H2M)) VH: QIQLVQSGAEMKRPGTSVKVSCKASGYTFSSYGINWVRQAPGQGLEWMGWISAYNGDTNYAQKLQGRVTMTTDTSTTTAYMEVRSLRSDDTAVYYCARFLTGTKDLYYGMDVWGQGTTVTVSS VL: DIQMTQSPSSLSASVGDRVTITCQASQDISNFLNWYQQKPGKAPDLLINDASILETGVPSRFSGSGSGTDFTLTINSLQPEDIATYYCQQYDNLPLTFGGGTKVEIK	IC50	0.017
H2M1710N (antibody, mouse IgG2, V domains shown, Human variable domains, mouse IgG2 Fc (H2M)) VH: QVQLVQSGADMKKPGASVRVSCKASGYTFTDYFIHWVRQAPGQGPEWMGWINPDSGATNYAQQFQGRVTMTRDTSISATYMEMSRLRSDDTAVFYCARDKDGSGWYLDDWGQGTLVTVSS VL: EIVLTQSPATLSLSPGERATLSCRASQSVNIYLAWYQQKPGQAPRLLIYDASNRASGIPARFSGSGSGTDFTLTISSLEPEDFAVYYCQQRSNWPPSITFGQGTRLEIK	IC50	0.37
